Taken from the METLIN SMRT retention time set (Domingo-Almenara et al. 2019).

assay: gradient 5% acetonitrile 3 min, to 50% in 2 min, to 85% in 15 min, held 3 min, 100 µL/min; conditions: column: Zorbax Extend-C18 2.1 x 50 mm; eluents: water / acetonitrile, 0.1% formic acid
assay_endpoint: RP-LC retention time (s)

molecule: O=C(NC1CCCC1)C1CCCN(S(=O)(=O)Cc2ccccc2Cl)C1 (stereo unspecified)
RP-LC retention time [s]: 915
--
molecule: CCCC(NC(=O)Cc1cccc(F)c1)C(=O)Nc1nc2ccccc2[nH]1 (stereo unspecified)
RP-LC retention time [s]: 691
--
molecule: O=C(NCCC1CCN(S(=O)(=O)c2ccc(F)cc2)CC1)NC1CCCCC1
RP-LC retention time [s]: 890
--
molecule: CN(C)c1cccc(C(=O)N2CCN(C(=O)c3nnn4c3COC(c3ccc(Cl)cc3)C4)CC2)c1 (stereo unspecified)
RP-LC retention time [s]: 881
--
molecule: CCN1CCN(C(=O)Cn2c(=O)c3cnc(-c4ccc(Cl)cc4)nc3n(CC)c2=O)CC1
RP-LC retention time [s]: 716
--
molecule: CCNC(=O)N1CCCC(c2cccc(C(=O)NC3CCCCCC3)c2)C1 (stereo unspecified)
RP-LC retention time [s]: 876
--
molecule: COc1cccc(NC(=O)N2CC(c3nc(C)no3)C3(CCOCC3)C2)c1 (stereo unspecified)
RP-LC retention time [s]: 703
--
molecule: O=S(=O)(NCCS(=O)(=O)N1CCc2ccccc21)c1cccnc1
RP-LC retention time [s]: 700
--
molecule: O=C(Cn1nc2n(c1=O)CCCCC2)NCc1ccccc1Cl
RP-LC retention time [s]: 719
--
molecule: O=C1NCCCCCN(C(=O)c2ccsc2)[C@H]2CCC[C@@H]12
RP-LC retention time [s]: 692
--
molecule: COc1cccc(-n2c(N3CCCC(C(=O)NCCc4cccs4)C3)nc3ccsc3c2=O)c1 (stereo unspecified)
RP-LC retention time [s]: 879
